Where these numbers come from: ChEMBL document CHEMBL4814070

- target.of.assay: Cholinesterase (Homo sapiens)
- Sequence (P06276 whole entry): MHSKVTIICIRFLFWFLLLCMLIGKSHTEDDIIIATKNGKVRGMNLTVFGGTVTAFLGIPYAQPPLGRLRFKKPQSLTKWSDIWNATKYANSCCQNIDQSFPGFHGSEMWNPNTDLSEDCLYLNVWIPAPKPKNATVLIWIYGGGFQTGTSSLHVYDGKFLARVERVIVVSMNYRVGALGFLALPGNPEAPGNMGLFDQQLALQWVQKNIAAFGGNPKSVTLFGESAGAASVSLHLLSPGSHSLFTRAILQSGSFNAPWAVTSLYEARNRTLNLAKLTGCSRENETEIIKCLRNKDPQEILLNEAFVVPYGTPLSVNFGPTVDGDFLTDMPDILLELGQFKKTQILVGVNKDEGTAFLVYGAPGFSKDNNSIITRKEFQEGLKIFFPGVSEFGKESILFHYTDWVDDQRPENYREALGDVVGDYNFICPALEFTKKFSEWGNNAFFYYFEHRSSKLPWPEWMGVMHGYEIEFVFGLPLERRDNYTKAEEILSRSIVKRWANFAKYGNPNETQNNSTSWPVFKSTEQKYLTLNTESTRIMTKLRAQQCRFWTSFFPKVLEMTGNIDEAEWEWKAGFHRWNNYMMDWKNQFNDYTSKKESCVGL
pIC50: −log10 of the molar value.
// label = 1 (yes) if pIC50 is not less than 5, otherwise 0 (no)

In [3]: df
Out[3]:
                             smiles                target_of_assay  category
0     Cl.Nc1c2c(nc3ccc(Cl)cc13)CCC2  Cholinesterase (Homo sapiens)   1 (yes)
1   Nc1c2c(nc3c(Br)cc(Br)cc13)CCCC2  Cholinesterase (Homo sapiens)    0 (no)
2      Nc1c2c(nc3ccc(Br)cc13)CCCCC2  Cholinesterase (Homo sapiens)    0 (no)
3         Cc1cccc2nc3c(c(N)c12)CCC3  Cholinesterase (Homo sapiens)   1 (yes)
4       Nc1c2c(nc3ccc(Cl)cc13)CCCC2  Cholinesterase (Homo sapiens)   1 (yes)
5  Nc1c2c(nc3c(Br)cc(Br)cc13)CCCCC2  Cholinesterase (Homo sapiens)    0 (no)
6  Nc1c2c(nc3c(Cl)cc(Cl)cc13)CCCCC2  Cholinesterase (Homo sapiens)    0 (no)
7     Cl.Nc1c2c(nc3ccc(Br)cc13)CCC2  Cholinesterase (Homo sapiens)    0 (no)
8       Cc1cccc2nc3c(c(N)c12)CCCCC3  Cholinesterase (Homo sapiens)   1 (yes)
9        Nc1c2c(nc3ccc(F)cc13)CCCC2  Cholinesterase (Homo sapiens)   1 (yes)

---

concentration at 0.25 h values by entry
- assay: Drug uptake in ICR mouse brain at 5 mg/kg, ip measured after 15 mins by HPLC-MS analysis
- Assay type: ADME, organism-based
- stated.conditions: read-out: Drug uptake
measured.quantity: concentration at 0.25 h (nM)

>>> print(df.to_string())
                            smiles        measured_quantity  unit  data_value
0   COc1ccc2nc3c(c(N)c2c1)CCCC3.Cl  concentration at 0.25 h    nM        2320
1    Cl.Nc1c2c(nc3ccc(Cl)cc13)CCC2  concentration at 0.25 h    nM        1000
2   Cl.Nc1c2c(nc3ccc(Br)cc13)CCCC2  concentration at 0.25 h    nM        1380
3    Cc1ccc2c(N)c3c(nc2c1)CCCC3.Cl  concentration at 0.25 h    nM         731
4    Cl.Nc1c2c(nc3ccc(Br)cc13)CCC2  concentration at 0.25 h    nM        1180
5  Cl.Nc1c2c(nc3cccc(Cl)c13)CCCCC2  concentration at 0.25 h    nM         762

---

concentration at 0.25 h values by entry
- assay: Drug uptake in ICR mouse plasma at 5 mg/kg, ip measured after 15 mins by HPLC-MS analysis
- Type: ADME, organism-based
measured.quantity: concentration at 0.25 h (nM)

>>> df
                            smiles  unit  data_value
0  Cl.Nc1c2c(nc3cccc(Cl)c13)CCCCC2    nM        2290
1    Cc1ccc2c(N)c3c(nc2c1)CCCC3.Cl    nM        1300
2   COc1ccc2nc3c(c(N)c2c1)CCCC3.Cl    nM        1670
3   Cl.Nc1c2c(nc3ccc(Br)cc13)CCCC2    nM        1330
4    Cl.Nc1c2c(nc3ccc(Br)cc13)CCC2    nM        2520
5    Cl.Nc1c2c(nc3ccc(Cl)cc13)CCC2    nM        1660
